The measured values listed here are drawn from ChEMBL document CHEMBL1133964.

system: Adenosine receptor A2a (Bos taurus); assay: Percent inhibition of [3H]CGS-21680 binding to A2A adenosine receptor of bovine striatal membrane at 10 uM
Decision: inhibition compared against 10%; not below it gives YES, below it gives NO.

CCOC(=O)c1cnc2c(cnn2CC(Cl)c2ccccc2)c1N1CCNCC1 (stereo not drawn) ... NO
CCCCNc1c(C(=O)OCC)cnc2c1cnn2CC(Cl)c1ccccc1 (stereo not drawn) ... NO
CCOC(=O)c1cnc2c(cnn2CC(Cl)c2ccccc2)c1NCc1ccccc1 (stereo not drawn) ... NO
CCOC(=O)c1cnc2c(cnn2CC(Cl)c2ccccc2)c1N1CCOCC1 (stereo not drawn) ... NO
CCOC(=O)c1cnc2c(cnn2CC(Cl)c2ccccc2)c1N1CCCCCC1 (stereo not drawn) ... YES

Could you please find out whether CCOC(=O)c1cnc2c(cnn2CC(Cl)c2ccccc2)c1Nc1ccccc1 (stereo not drawn) has inhibition that meets 10% or exceeds it?
YES

Threshold query (inhibition >= 10%) on CCOC(=O)c1cnc2c(cnn2CC(Cl)c2ccccc2)c1N1CCCCC1 (stereo not drawn)
YES

###

Molecular target: Adenosine receptor A1 (Bos taurus, UniProt P28190)
Sequence (P28190 whole entry): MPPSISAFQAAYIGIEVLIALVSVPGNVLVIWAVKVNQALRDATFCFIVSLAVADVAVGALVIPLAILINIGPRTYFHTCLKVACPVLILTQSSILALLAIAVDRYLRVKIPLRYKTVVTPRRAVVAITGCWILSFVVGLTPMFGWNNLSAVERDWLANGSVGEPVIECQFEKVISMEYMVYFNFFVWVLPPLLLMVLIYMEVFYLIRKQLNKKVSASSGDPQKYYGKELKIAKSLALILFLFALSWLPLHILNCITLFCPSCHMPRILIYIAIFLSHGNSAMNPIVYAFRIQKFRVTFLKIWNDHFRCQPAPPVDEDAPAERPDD
Entries and their pKi
Please keep in mind that pKi is minus log10 of the molar concentration; only the number is needed.

CCOC(=O)c1cnc2c(cnn2CC(Cl)c2ccccc2)c1NC(C)(C)C (stereo not drawn) ... 5.32
CCOC(=O)c1cnc2c(cnn2CC(Cl)c2ccccc2)c1N1CCOCC1 (stereo not drawn) ... 6.33

Consider the record given below.
Query the reported pKi for Adenosine receptor A1 (Bos taurus, UniProt P28190); item: CCCNc1c(C(=O)OCC)cnc2c1cnn2CC(Cl)c1ccccc1 (stereo not drawn)
7.00

###

target: Adenosine receptor A2a (Bos taurus); test: Displacement of [3H]CGS-21680 binding at A2A adenosine receptor in bovine striatal membrane
measure: Ki (nM)
The reply should contain only the number, in nM.

Write down the reported Ki of CCOC(=O)c1cnc2c(cnn2CC(Cl)c2ccccc2)c1N1CCN(C)CC1 (stereo unspecified) , test system: Adenosine receptor A2a (Bos taurus).
2140

###

target: Adenosine receptor A1 (Bos taurus); experiment: Percent inhibition of [3H]CHA binding at Adenosine A1 receptor in bovine cortical membrane at 10 uM; assay type: cell membranes
Entries and their inhibition values follow.

Give the measured inhibition of CCOC(=O)c1cnc2c(cnn2CC(Cl)c2ccccc2)c1N1CCN(C)CC1 (centres undefined) .
22%

Look at this compound and give its reported inhibition. CCOC(=O)c1cnc2c(cnn2CC(Cl)c2ccccc2)c1N1CCCCCC1 (centres undefined)
35%

Requested field: inhibition. Item: CCOC(=O)c1cnc2c(cnn2CC(Cl)c2ccccc2)c1N1CCCCC1 (centres undefined)
41%

Name the recorded inhibition for CCOC(=O)c1cnc2c(cnn2CC(Cl)c2ccccc2)c1N1CCNCC1 (centres undefined) .
0%
